Biological target: Protein deacetylase HDAC6 (Homo sapiens)
Sequence (Q9UBN7 whole entry): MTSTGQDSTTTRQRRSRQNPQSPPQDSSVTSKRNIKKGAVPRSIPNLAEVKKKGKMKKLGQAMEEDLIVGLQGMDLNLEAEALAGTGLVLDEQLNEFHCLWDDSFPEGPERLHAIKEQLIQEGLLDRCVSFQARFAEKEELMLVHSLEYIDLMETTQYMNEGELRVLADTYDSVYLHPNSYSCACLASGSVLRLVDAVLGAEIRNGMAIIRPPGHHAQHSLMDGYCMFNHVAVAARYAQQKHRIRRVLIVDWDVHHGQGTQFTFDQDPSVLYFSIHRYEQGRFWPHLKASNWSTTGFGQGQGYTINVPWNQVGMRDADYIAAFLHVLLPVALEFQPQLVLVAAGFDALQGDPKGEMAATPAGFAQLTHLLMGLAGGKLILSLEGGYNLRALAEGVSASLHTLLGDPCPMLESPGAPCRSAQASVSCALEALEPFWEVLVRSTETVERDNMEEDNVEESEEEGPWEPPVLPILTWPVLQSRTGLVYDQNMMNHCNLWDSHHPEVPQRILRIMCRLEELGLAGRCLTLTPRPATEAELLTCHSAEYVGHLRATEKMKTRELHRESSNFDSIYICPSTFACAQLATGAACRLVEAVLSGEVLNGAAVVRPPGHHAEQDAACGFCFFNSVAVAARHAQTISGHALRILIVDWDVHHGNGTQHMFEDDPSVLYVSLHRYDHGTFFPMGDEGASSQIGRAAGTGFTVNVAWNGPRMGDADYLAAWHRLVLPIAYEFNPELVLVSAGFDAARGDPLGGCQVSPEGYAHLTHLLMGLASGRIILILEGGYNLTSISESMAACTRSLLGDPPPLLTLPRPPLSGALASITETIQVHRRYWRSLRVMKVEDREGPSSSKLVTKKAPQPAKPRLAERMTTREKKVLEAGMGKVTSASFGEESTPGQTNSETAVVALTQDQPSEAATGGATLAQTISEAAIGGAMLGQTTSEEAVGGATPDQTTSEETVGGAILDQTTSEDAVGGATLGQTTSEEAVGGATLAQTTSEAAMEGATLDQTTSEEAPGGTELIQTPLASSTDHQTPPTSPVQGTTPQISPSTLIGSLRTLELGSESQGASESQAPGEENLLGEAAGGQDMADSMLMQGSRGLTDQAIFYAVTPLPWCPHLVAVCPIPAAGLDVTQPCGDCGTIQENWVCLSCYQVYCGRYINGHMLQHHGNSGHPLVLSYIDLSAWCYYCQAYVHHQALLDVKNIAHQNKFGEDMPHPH
Experiment: Inhibition of recombinant human N-terminal GST tagged HDAC6 expressed in baculovirus infected Sf9 insect cells using Ac-Leu-Gly-Lys (Ac)-AMC as substrate preincubated for 5 mins followed by substrate addition and measured after 30 mins by fluorescence microtiter plate reader assay
parameter measured: IC50 (nM)

In [3]: df
Out[3]:
                           smiles_structure  output_unit  test_value
0  COc1cc(-c2ncc(C(=O)NCCCCCCC(=O)NO)s2)cc(OC)c1OC           nM         800
1  O=C(CCCCCCNC(=O)c1cnc(-c2ccc(OC(F)(F)F)cc2)s1)NO           nM         710
2  COc1cc(OC)cc(-c2ncc(C(=O)NCCCCCCC(=O)NO)s2)c1           nM         760
3    COc1cc(OC)cc(-c2ncc(/C=C/C(=O)NO)s2)c1           nM         940
4    O=C(/C=C/c1cnc(-c2ccc3c(c2)OCCO3)s1)NO           nM         770
5  O=C(/C=C/c1cnc(-c2ccc(N3CCOCC3)cc2)s1)NO           nM         970
6        COc1ccc(-c2ncc(/C=C/C(=O)NO)s2)cc1           nM         910
7  COc1ccc(-c2ncc(/C=C/C(=O)NO)s2)c(OC)c1OC           nM        1090
